experiment: Growth inhibition of human Hs 578T cells assessed as growth inhibition at 10 uM by sulforhodamine B assay; assay type: functional; settings: read-out: GI
READOUT LABEL: inhibition of growth at 10 µM

# example entries with known answers
SMI	READOUT LABEL	RECORDED MEASUREMENT
CC1(C)C[C@@H](O)[C@]2(C(=O)O)CC[C@]3(C)C(=CC[C@@H]4[C@@]5(C)CCC(=O)C(C)(C)[C@@H]5CC[C@]43C)[C@@H]2C1	inhibition of growth at 10 µM	< 10%
CC1(C)C[C@@H](O)[C@]2(C(=O)O)CC[C@]3(C)C(=CC[C@@H]4[C@@]5(C)CC[C@H](O)C(C)(C)[C@@H]5CC[C@]43C)[C@@H]2C1	inhibition of growth at 10 µM	< 10%

Could you please provide reported inhibition of growth at 10 µM for "C/C=C(/C)C(=O)O[C@@H]1CC(C)(C)C[C@H]2C3=CC[C@@H]4[C@@]5(C)CCC(=O)C(C)(C)[C@@H]5CC[C@@]4(C)[C@]3(C)CC[C@@]12C(=O)O" ? Thanks!
21.2%
